B1: TPR 5TU (parent)
chain: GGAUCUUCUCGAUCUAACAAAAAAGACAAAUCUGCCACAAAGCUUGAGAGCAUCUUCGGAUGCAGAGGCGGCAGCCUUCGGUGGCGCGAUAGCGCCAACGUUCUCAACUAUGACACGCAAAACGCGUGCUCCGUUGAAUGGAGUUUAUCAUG

# Variants of: B1
# test: polymerase ribozyme fitness, log enrichment relative to wild type (log ratio); higher = more active; in vitro selection for triplet polymerase activity
This sample holds only a part of the variants without activity.
Entry flag: true (1) if polymerase ribozyme fitness (log ratio) reaches -2; false (0) if it does not.

Study these solved cases before continuing.
{"columns": ["mutation code", "cat"],
 "data": [
  ["A16G A30U C38A C96G A97C C105G A107U A110U", "false (0)"],
  ["A21C G34C A39U U55A C95G U104A A119G U144G U146A", "false (0)"],
  ["A29G C76U G92A C123G G143U", "false (0)"],
  ["C57U G86A", "true (1)"]
]}

query: Please check the record C18U U31G A41G U56A C63U C95U C96G U144C and state if its polymerase ribozyme fitness (log ratio) is at or above -2.
result: false (0)
